Give measured tissue uptake at 1 h for each item. Keep answers brief.
# procedure details: Ex vivo biodistribution in PC-3 tumor-bearing mice
# Parameters: species or system NRG mice
# condition notes: mouse, PC-3 tumor, intravenous, 1 h post-injection, n = 4; read-out: PC-3 tumor uptake

**Query** Which tissue uptake at 1 h is listed for CC(C)C[C@H](NC(=O)[C@H](Cc1c[nH]cn1)NC(=O)CNC(=O)[C@@H](NC(=O)[C@H](C)NC(=O)[C@H](Cc1c[nH]c2ccccc12)NC(=O)[C@H](CCC(N)=O)NC(=O)[C@@H](Cc1ccccc1)NC(=O)CN1CCC(NC(=O)CN2CCN(CC(=O)O)CCN(CC(=O)O)CCN(CC(=O)O)CC2)CC1)C(C)C)C(=O)N1CSC[C@H]1C(N)=O [[^68Ga]Ga-TacBOMB2, metal not drawn] ?
**Result** 5.95 %ID/g

**Query** Which tissue uptake at 1 h is listed for CC(C)C[C@H](NC(=O)[C@H](Cc1c[nH]cn1)NC(=O)CNC(=O)[C@@H](NC(=O)[C@H](C)NC(=O)[C@H](Cc1c[nH]c2ccccc12)NC(=O)[C@H](CCC(N)=O)NC(=O)[C@@H](Cc1ccc2ccccc2c1)NC(=O)CN1CCC(NC(=O)CN2CCN(CC(=O)O)CCN(CC(=O)O)CCN(CC(=O)O)CC2)CC1)C(C)C)C(=O)N1CSC[C@H]1C(N)=O [[^68Ga]Ga-TacBOMB3, metal not drawn] ?
**Result** 5.09 %ID/g

----------
# procedure details: Ex vivo biodistribution in PC-3 tumor-bearing mice
# Design: species or system NRG mice
# condition notes: mouse, kidneys, intravenous, 1 h post-injection, n = 4; read-out: Kidneys uptake
metric name: tissue uptake at 1 h (%ID/g)
Just the number please, in %ID/g, no unit attached.

**Query** Which tissue uptake at 1 h is listed for CC(C)C[C@H](NC(=O)[C@H](Cc1c[nH]cn1)NC(=O)CNC(=O)[C@@H](NC(=O)[C@H](C)NC(=O)[C@H](Cc1c[nH]c2ccccc12)NC(=O)[C@H](CCC(N)=O)NC(=O)[C@@H](Cc1ccc2ccccc2c1)NC(=O)CN1CCC(NC(=O)CN2CCN(CC(=O)O)CCN(CC(=O)O)CCN(CC(=O)O)CC2)CC1)C(C)C)C(=O)N1CSC[C@H]1C(N)=O [[^68Ga]Ga-TacBOMB3, metal not drawn] ?
**Result** 4.61

**Query** Which tissue uptake at 1 h is listed for CC(C)C[C@H](NC(=O)[C@H](Cc1c[nH]cn1)NC(=O)CNC(=O)[C@@H](NC(=O)[C@H](C)NC(=O)[C@H](Cc1c[nH]c2ccccc12)NC(=O)[C@H](CCC(N)=O)NC(=O)[C@@H](Cc1ccccc1)NC(=O)CN1CCC(NC(=O)CN2CCN(CC(=O)O)CCN(CC(=O)O)CCN(CC(=O)O)CC2)CC1)C(C)C)C(=O)N1CSC[C@H]1C(N)=O [[^68Ga]Ga-TacBOMB2, metal not drawn] ?
**Result** 2.43

----------
Give measured tissue uptake at 1 h for each item. Keep answers brief.
# procedure details: Ex vivo biodistribution in PC-3 tumor-bearing mice
# Parameters: species or system NRG mice
# condition notes: mouse, spleen, intravenous, 1 h post-injection, n = 4; read-out: Spleen uptake
Just the number please, in %ID/g, no unit attached.

**Query** Which tissue uptake at 1 h is listed for CC(C)C[C@H](NC(=O)[C@H](Cc1c[nH]cn1)NC(=O)CNC(=O)[C@@H](NC(=O)[C@H](C)NC(=O)[C@H](Cc1c[nH]c2ccccc12)NC(=O)[C@H](CCC(N)=O)NC(=O)[C@@H](Cc1ccc2ccccc2c1)NC(=O)CN1CCC(NC(=O)CN2CCN(CC(=O)O)CCN(CC(=O)O)CCN(CC(=O)O)CC2)CC1)C(C)C)C(=O)N1CSC[C@H]1C(N)=O [[^68Ga]Ga-TacBOMB3, metal not drawn] ?
**Result** 0.5

**Query** Which tissue uptake at 1 h is listed for CC(C)C[C@H](NC(=O)[C@H](Cc1c[nH]cn1)NC(=O)CNC(=O)[C@@H](NC(=O)[C@H](C)NC(=O)[C@H](Cc1c[nH]c2ccccc12)NC(=O)[C@H](CCC(N)=O)NC(=O)[C@@H](Cc1ccccc1)NC(=O)CN1CCC(NC(=O)CN2CCN(CC(=O)O)CCN(CC(=O)O)CCN(CC(=O)O)CC2)CC1)C(C)C)C(=O)N1CSC[C@H]1C(N)=O [[^68Ga]Ga-TacBOMB2, metal not drawn] ?
**Result** 0.27

----------
# procedure details: Ex vivo biodistribution in PC-3 tumor-bearing mice
# Set-up: species or system NRG mice
# condition notes: mouse, liver, intravenous, 1 h post-injection, n = 4; read-out: Liver uptake
# Method: For biodistribution studies, the mice were injected with the radiotracer (2–4 MBq) via the tail vein as described above. For blocking, the mice were co-injected with 100 μg of [D-Phe^6,Leu-NHEt^13,des-Met^14]Bombesin(6–14). […] Blood was collected through a cardiac puncture, and organs/tissues of interest were collected, weighed, and counted using a Perkin Elmer (Waltham, MA, USA) Wizard2 2480 automatic gamma counter.
metric name: tissue uptake at 1 h (%ID/g)
Just the number please, in %ID/g, no unit attached.

**Query** Which tissue uptake at 1 h is listed for CC(C)C[C@H](NC(=O)[C@H](Cc1c[nH]cn1)NC(=O)CNC(=O)[C@@H](NC(=O)[C@H](C)NC(=O)[C@H](Cc1c[nH]c2ccccc12)NC(=O)[C@H](CCC(N)=O)NC(=O)[C@@H](Cc1ccc2ccccc2c1)NC(=O)CN1CCC(NC(=O)CN2CCN(CC(=O)O)CCN(CC(=O)O)CCN(CC(=O)O)CC2)CC1)C(C)C)C(=O)N1CSC[C@H]1C(N)=O [[^68Ga]Ga-TacBOMB3, metal not drawn] ?
**Result** 0.65

----------
# procedure details: Ex vivo biodistribution in PC-3 tumor-bearing mice
# Parameters: species or system NRG mice
# condition notes: mouse, testes, intravenous, 100 ug, 1 h blocked: co-injected with 100 µg of [D-Phe6,Leu-NHEt13,des-Met14]Bombesin(6-14), n = 4; read-out: Testes uptake
# Procedure: For biodistribution studies, the mice were injected with the radiotracer (2–4 MBq) via the tail vein as described above. For blocking, the mice were co-injected with 100 μg of [D-Phe^6,Leu-NHEt^13,des-Met^14]Bombesin(6–14). […] Blood was collected through a cardiac puncture, and organs/tissues of interest were collected, weighed, and counted using a Perkin Elmer (Waltham, MA, USA) Wizard2 2480 automatic gamma counter.
metric name: tissue uptake at 1 h (%ID/g)
Just the number please, in %ID/g, no unit attached.

**Query** Which tissue uptake at 1 h is listed for CC(C)C[C@H](NC(=O)[C@H](Cc1c[nH]cn1)NC(=O)CNC(=O)[C@@H](NC(=O)[C@H](C)NC(=O)[C@H](Cc1c[nH]c2ccccc12)NC(=O)[C@H](CCC(N)=O)NC(=O)[C@@H](Cc1ccccc1)NC(=O)CN1CCC(NC(=O)CN2CCN(CC(=O)O)CCN(CC(=O)O)CCN(CC(=O)O)CC2)CC1)C(C)C)C(=O)N1CSC[C@H]1C(N)=O [[^68Ga]Ga-TacBOMB2, metal not drawn] ?
**Result** 0.21

----------
# procedure details: Ex vivo biodistribution in PC-3 tumor-bearing mice
# Set-up: species or system NRG mice
# condition notes: male, NRG (NOD.Cg-Rag1^tm1Mom Il2rg^tm1Wjl/SzJ), mouse, tumor and muscle, iv, total radioactivity, 1 h blocked: co-injected with 100 µg of [D-Phe6,Leu-NHEt13,des-Met14]Bombesin(6-14), n = 4; read-out: Tumor/muscle uptake ratio
# Procedure: For biodistribution studies, the mice were injected with the radiotracer (2–4 MBq) via the tail vein as described above. For blocking, the mice were co-injected with 100 μg of [D-Phe^6,Leu-NHEt^13,des-Met^14]Bombesin(6–14). […] Blood was collected through a cardiac puncture, and organs/tissues of interest were collected, weighed, and counted using a Perkin Elmer (Waltham, MA, USA) Wizard2 2480 automatic gamma counter.
metric name: tissue to tissue ratio at 1 h
No unit in the answer, please; the number alone is enough.

**Query** Which tissue to tissue ratio at 1 h is listed for CC(C)C[C@H](NC(=O)[C@H](Cc1c[nH]cn1)NC(=O)CNC(=O)[C@@H](NC(=O)[C@H](C)NC(=O)[C@H](Cc1c[nH]c2ccccc12)NC(=O)[C@H](CCC(N)=O)NC(=O)[C@@H](Cc1ccccc1)NC(=O)CN1CCC(NC(=O)CN2CCN(CC(=O)O)CCN(CC(=O)O)CCN(CC(=O)O)CC2)CC1)C(C)C)C(=O)N1CSC[C@H]1C(N)=O [[^68Ga]Ga-TacBOMB2, metal not drawn] ?
**Result** 7.14

----------
# procedure details: Ex vivo biodistribution in PC-3 tumor-bearing mice
# Parameters: species or system NRG mice
# condition notes: mouse, intestines, intravenous, 1 h post-injection, n = 4; read-out: Intestines uptake
metric name: tissue uptake at 1 h (%ID/g)
Just the number please, in %ID/g, no unit attached.

**Query** Which tissue uptake at 1 h is listed for CC(C)C[C@H](NC(=O)[C@H](Cc1c[nH]cn1)NC(=O)CNC(=O)[C@@H](NC(=O)[C@H](C)NC(=O)[C@H](Cc1c[nH]c2ccccc12)NC(=O)[C@H](CCC(N)=O)NC(=O)[C@@H](Cc1ccc2ccccc2c1)NC(=O)CN1CCC(NC(=O)CN2CCN(CC(=O)O)CCN(CC(=O)O)CCN(CC(=O)O)CC2)CC1)C(C)C)C(=O)N1CSC[C@H]1C(N)=O [[^68Ga]Ga-TacBOMB3, metal not drawn] ?
**Result** 1.06

**Query** Which tissue uptake at 1 h is listed for CC(C)C[C@H](NC(=O)[C@H](Cc1c[nH]cn1)NC(=O)CNC(=O)[C@@H](NC(=O)[C@H](C)NC(=O)[C@H](Cc1c[nH]c2ccccc12)NC(=O)[C@H](CCC(N)=O)NC(=O)[C@@H](Cc1ccccc1)NC(=O)CN1CCC(NC(=O)CN2CCN(CC(=O)O)CCN(CC(=O)O)CCN(CC(=O)O)CC2)CC1)C(C)C)C(=O)N1CSC[C@H]1C(N)=O [[^68Ga]Ga-TacBOMB2, metal not drawn] ?
**Result** 0.6

Data credit: paper PMC9962964
